test system: HCT-116 colon; experiment: NCI tumour cell line growth inhibition, 48 h; in the data active = GI50 below about 0.43 µM; inactive = the rest
The reply should be one of these categories: 1 = active, 0 = inactive

Reference set, count: 7
INSERT INTO assay_data (compound, group) VALUES
  ('CC(=O)/C=C/c1cn(C(=O)OC(C)(C)C)c2ccc(Br)cc12', 0),
  ('CO[C@H]1CC(O[C@@H]2/C(C)=C/C[C@@H]3C[C@@H](C[C@]4(C=C[C@H](C)[C@@H](C5CCCCC5)O4)O3)OC(=O)[C@@H]3C=C(C)[C@@H](O)[C@H]4OC/C(=C\C=C\[C@@H]2C)[C@]43O)O[C@@H](C)C1O[C@H]1C[C@H](OC)[C@@H](O)[C@H](C)O1 (stereo partly drawn)', 0),
  ('Fc1ccc(/C=N/n2c(-c3ccc(F)c(Cl)c3)nn(CNc3ccccc3C(F)(F)F)c2=S)cc1', 0),
  ('CC(=O)OC12C=C(C)C(C(C)C1)C1C(=O)N(CCN3CCOCC3)C(=O)C12 (stereo not drawn)', 0),
  ('CC(C)C[C@H](NC(=O)CNC(=O)c1cc(Cl)ccc1Cl)B1OC(=O)CC(CC(=O)O)(C(=O)O)O1 (stereo partly drawn)', 1),
  ('CN(C)CCCn1c(=O)c2ccccc2c2ccccc21', 0),
  ('CCCN(CCS(C)(=O)=O)Cc1ccc(-c2ccc3ncnc(Nc4ccc(OCc5cccc(F)c5)c(Cl)c4)c3c2)o1', 0);

// next entry
Challenge: Please indicate how the test categorized c1cnn2ncc(-c3ccnc(NCCCN4CCOCC4)n3)c2c1 .
Response given: 0
